Just for reference, patent US5658908A is where these values come from.

// reported IC50 for each item listed
# study_system: Delta Receptor (Rattus norvegicus)
# Construct: Rat (Sprague-Dawley) brain membranes were prepared; from tissue; host or cells: rat (Sprague-Dawley) brain membranes
# Sequence (P33533 whole entry): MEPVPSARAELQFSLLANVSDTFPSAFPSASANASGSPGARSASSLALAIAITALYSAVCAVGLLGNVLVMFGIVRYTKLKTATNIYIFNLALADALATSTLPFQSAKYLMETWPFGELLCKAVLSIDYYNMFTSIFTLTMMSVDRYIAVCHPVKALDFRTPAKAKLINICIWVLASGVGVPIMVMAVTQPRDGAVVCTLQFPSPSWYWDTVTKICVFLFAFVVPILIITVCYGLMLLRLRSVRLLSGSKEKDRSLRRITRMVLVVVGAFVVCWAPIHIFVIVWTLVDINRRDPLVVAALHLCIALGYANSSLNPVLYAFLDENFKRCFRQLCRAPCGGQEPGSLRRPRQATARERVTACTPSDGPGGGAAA
# assay_text: Delta receptor binding, rat brain membranes
# Parameters: species or system rat (Sprague-Dawley)
# study_conditions: 125I-[D-Ala2,D-Leu5]enkephalin 0.24 nM with mu-agonist morphiceptin analog, 24° C., 60 min, mean of (n) experiments, read-out: Delta Receptor IC50
Give the value, in units of nM, as a plain number.

{"columns": ["compound", "measurement_label", "unit_symbol", "measurement"],
 "data": [
  ["C=CCN1C[C@H](C)N(C(c2ccc(C(=O)N(CC)CC)cc2)c2cccc(NC=O)c2)C[C@H]1C (mixture of isomers)", "IC50", "nM", 9.1],
  ["C=CCN1C[C@H](C)N([C@H](c2ccc(C(=O)NCC(=O)NCC(=O)O)cc2)c2cccc(O)c2)C[C@H]1C (relative stereo)", "IC50", "nM", 0.4],
  ["C=CCN1C[C@@H](C)N([C@H](c2ccccc2)c2cccc(O)c2)C[C@@H]1C (relative stereo)", "IC50", "nM", 16],
  ["C=CCN1C[C@H](C)N([C@H](c2ccc(C(=O)NCCOCCOCCNC(=O)c3ccc([C@H](c4cccc(O)c4)N4C[C@@H](C)N(CC=C)C[C@@H]4C)cc3)cc2)c2cccc(O)c2)C[C@H]1C (relative stereo)", "IC50", "nM", 10],
  ["C=CCN1C[C@H](C)N([C@H](c2ccc(C(=O)N(CC)CC)cc2)c2cccc(O)c2)C[C@H]1C (relative stereo) [Example 6]", "IC50", "nM", 1.8],
  ["C=CCN1C[C@H](C)N([C@H](c2ccc(S(C)(=O)=O)cc2)c2cccc(O)c2)C[C@H]1C (relative stereo)", "IC50", "nM", 1.3],
  ["C=CCN1C[C@H](C)N([C@H](c2ccc(S(=O)(=O)N(CC)CC)cc2)c2cccc(O)c2)C[C@H]1C (relative stereo)", "IC50", "nM", 20],
  ["CCN(CC)C(=O)c1ccc(C(C2=C(C)CN(C)C(C)C2)c2cccc(O)c2)cc1 (racemic)", "IC50", "nM", 2.5],
  ["C=CCN1C[C@H](C)N([C@H](c2ccc(C(=O)N(CC)CC)cc2)c2cccc(O)c2)C[C@H]1C [Example 6a]", "IC50", "nM", 1.2],
  ["C=CCN1C[C@H](C)N([C@@H](c2cccc(O)c2)c2cccc(C(=O)N(CC)CC)c2)C[C@H]1C (relative stereo) [Example 84]", "IC50", "nM", 1.6]
]}

Data request: I'd like to know its IC50. The compound in question is `CCN(CC)C(=O)c1ccc([C@H](c2cccc(O)c2)N2C[C@H](C)N(C)C[C@@H]2C)cc1`
Data returned: 1.2

Data request: Please look up its IC50: C=CCN1C[C@H](C)N([C@H](c2cccc(O)c2)c2cccs2)C[C@H]1C (relative stereo)
Data returned: 11

Data request: Item under review: C=CCN1C[C@H](C)N([C@H](c2ccc(C(=O)N(CC)CCO)cc2)c2cccc(O)c2)C[C@H]1C (relative stereo) . Reported IC50?
Data returned: 6.5

Data request: Dear colleague, I am looking for the recorded IC50 of the following compound: C=CCN1C[C@H](C)N([C@@H](c2cccc(O)c2)c2cccc(C(=O)N(CC)CC)c2)C[C@H]1C [Example 85]
Data returned: 1.9

Data request: Entry under review: CCN(CC)C(=O)c1ccc(C(c2cccc(O)c2)N2C[C@@H](C)N(C)[C@@H](C)C2)cc1 (relative stereo) . Reported IC50?
Data returned: 4

* * *

# study_system: mouse vas deferens (Mus musculus)
# Construct: Vasa deferentia were removed from mice; from tissue; host or cells: mouse vas deferens
# Sequence (P32300 whole entry): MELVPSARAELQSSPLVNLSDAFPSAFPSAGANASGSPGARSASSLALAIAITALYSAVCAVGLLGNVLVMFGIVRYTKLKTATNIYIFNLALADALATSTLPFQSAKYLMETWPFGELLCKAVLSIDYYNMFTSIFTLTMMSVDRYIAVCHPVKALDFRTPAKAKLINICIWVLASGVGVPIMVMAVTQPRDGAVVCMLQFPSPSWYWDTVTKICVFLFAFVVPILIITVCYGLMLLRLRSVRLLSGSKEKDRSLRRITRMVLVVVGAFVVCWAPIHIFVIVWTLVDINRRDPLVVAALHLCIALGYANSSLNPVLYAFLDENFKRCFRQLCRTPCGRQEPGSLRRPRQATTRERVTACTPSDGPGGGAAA
# assay_text: cell-based
# Type: cell-based
# study_conditions: read-out: Mouse Vas Deferens ED50; electrically stimulated, 37° C.; mean of (n) experiments
measurement_label: pIC50
Please express pIC50 as -log10 of the molar concentration.

Data request: Fill in: pIC50 of C=CCN1C[C@H](C)N([C@H](c2cccc(O)c2)c2cccs2)C[C@H]1C [Example 67] is ___
Data returned: 7.70

* * *

# study_system: mouse vas deferens (Mus musculus)
# Construct: Vasa deferentia were removed from mice; from tissue; host or cells: mouse vas deferens
# assay_text: cell-based
# Type: cell-based
Response field label: string, one of 1 (yes) (IC50 strictly below 2 nM) or 0 (no).

{"columns": ["compound", "label_value"],
 "data": [
  ["C=CCN1C[C@H](C)N([C@H](c2ccc(C(=O)N(CC)CC)cc2)c2cccc(O)c2)C[C@H]1C [Example 6a]", "1 (yes)"],
  ["C/C=C\\CN1[C@H](C)CN(C(c2ccc(C(=O)N(CC)CC)cc2)c2cccc(O)c2)C[C@@H]1C (relative stereo)", "0 (no)"],
  ["C=CCN1C[C@H](C)N([C@@H](c2cccc(O)c2)c2cccc(C(=O)N(CC)CC)c2)C[C@H]1C [Example 85]", "0 (no)"],
  ["CCN(CC)C(=O)c1ccc([C@H](c2cccc(O)c2)N2C[C@H](C)NC[C@H]2C)cc1 (relative stereo)", "0 (no)"],
  ["C=CCN1C[C@H](C)N([C@H](c2cccc(O)c2)c2cccs2)C[C@H]1C (relative stereo)", "0 (no)"]
]}

Data request: Given C=CCN1C[C@H](C)N([C@H](c2ccc(C(=O)N(CC)CCO)cc2)c2cccc(O)c2)C[C@H]1C (relative stereo) , is recorded IC50 strictly lower than 2 nM?
Data returned: 1 (yes)

Data request: Threshold test, IC50 < 2 nM: CCN(CC)C(=O)c1ccc(C(c2cccc(O)c2)N2C[C@@H](C)N(C)[C@@H](C)C2)cc1 (relative stereo)
Data returned: 0 (no)

* * *

# study_system: Mu Receptor (Rattus norvegicus, UniProt P33535)
# Construct: Rat (Sprague-Dawley) brain membranes were prepared; from tissue; host or cells: rat (Sprague-Dawley) brain membranes
# Sequence (P33535 whole entry): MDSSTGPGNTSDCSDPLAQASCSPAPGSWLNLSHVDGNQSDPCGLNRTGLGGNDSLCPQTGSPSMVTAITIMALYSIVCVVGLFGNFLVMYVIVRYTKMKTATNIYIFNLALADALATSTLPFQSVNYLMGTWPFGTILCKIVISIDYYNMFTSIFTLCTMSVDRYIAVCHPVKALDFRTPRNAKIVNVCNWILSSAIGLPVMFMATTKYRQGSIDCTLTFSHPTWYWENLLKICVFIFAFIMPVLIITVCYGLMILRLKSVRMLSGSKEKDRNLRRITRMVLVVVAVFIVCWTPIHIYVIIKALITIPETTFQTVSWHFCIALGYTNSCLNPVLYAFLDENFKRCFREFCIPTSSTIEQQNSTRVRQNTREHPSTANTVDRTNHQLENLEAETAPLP
# assay_text: Mu receptor binding, rat brain membranes
# Design: species or system rat (Sprague-Dawley)
# study_conditions: 125I-[D-Ala2,N-MePhe4,Met(O)ol5]enkephalin 0.1 nM, 24° C., 60 min, mean of (n) experiments, read-out: Mu Receptor IC50
measurement_label: IC50 (nM)
Quick reminder: number only, in nM, skip the unit.

{"columns": ["compound", "measurement"],
 "data": [
  ["CCN(CC)C(=O)c1ccc([C@H](c2cccc(O)c2)N2C[C@H](C)NC[C@H]2C)cc1 (relative stereo)", 120],
  ["CCN(CC)C(=O)c1ccc(C(C2=C(C)CN(C)C(C)C2)c2cccc(O)c2)cc1 (racemic)", 130],
  ["C=CCN1C[C@H](C)N([C@H](c2ccc(S(=O)(=O)N(CC)CC)cc2)c2cccc(O)c2)C[C@H]1C (relative stereo)", 100]
]}

Now take the following compound into account.
Data request: Dear colleague, I am looking for the recorded IC50 of the following compound: `CCN(CC)C(=O)c1ccc([C@H](c2cccc(O)c2)N2C[C@H](C)N(C)C[C@@H]2C)cc1`
Data returned: 150

* * *

# study_system: mouse vas deferens (Mus musculus)
# Construct: Vasa deferentia were removed from mice; from tissue; host or cells: mouse vas deferens
# assay_text: cell-based
# Format: cell-based
IC50 listing for selected molecules.
Quick reminder: number only, in nM, skip the unit.

Some solved cases for reference:
{"columns": ["molecule", "study_system", "unit_symbol", "measurement"],
 "data": [
  ["C=CCN1C[C@H](C)N(C(c2ccc(C(=O)N(CC)CC)cc2)c2cccc(NC=O)c2)C[C@H]1C (mixture of isomers) [Example 36]", "mouse vas deferens (Mus musculus)", "nM", 2],
  ["CCN(CC)C(=O)c1ccc([C@H](c2cccc(O)c2)N2C[C@H](C)N(C)C[C@@H]2C)cc1 [Example 12]", "mouse vas deferens (Mus musculus)", "nM", 2]
]}

Then there is this molecule:
Data request: Endpoint output: IC50 of C=CCN1C[C@H](C)N([C@H](c2ccc(C(=O)NCC(=O)NCC(=O)O)cc2)c2cccc(O)c2)C[C@H]1C (relative stereo) [Example 25] . Value?
Data returned: 2
